B1: Hairpin Ribozyme (parent)
chain: GUCCUCUUUCACGUGCGCGUGAAAGAGAGAAGUGAACCAGAGAAACACACGUUGUGGUAUAUUACCUGGUA

- Variants of: B1
- assayComment: self-cleavage, relative activity (ratio to wild type); higher = more cleavage; co-transcriptional
Here the recorded self-cleavage is given for each entry.
parameter: self-cleavage

1. GUCCUUUUUCACGUGCGCGUGAAAGAGAGAAGUGAACCAGAGAAACACAUGUUGUGGUAUAUUACCUGGUA [C6U C50U] ... 0.386
2. GUCCUCUUUCACGUGCGCGUGAAAGAGACAAGUGAACCAGAGAAACACACGUUGUAGUAUAUUACCUGGUA [G29C G56A] ... 0.0331
3. GUCCUCUUCCACGUGCGCGUGAAAGAGAGAAGUGAACCAGAGAAACACACGAUGUGGUAUAUUACCUGGUA [U9C U52A] ... 0.895
4. GUCCUCUUUCACGUGCGCGUGAAAGAGAGAACUGAGCCAGAGAAACACACGUUGUGGUAUAUUACCUGGUA [G32C A36G] ... 0.0754
5. GUCCUCUUUCACGUGCGGGUGAAAGAGAGAAGUGAACCAGAGAAACACACGUUGGGGUAUAUUACCUGGUA [C18G U55G] ... 0.311
6. GUCCUCUUUCACGUGCGCGUGAAAGUGAGAAGUGAACCAGAGAAACACACGUUGUGGUAUAUUACCUGGGA [A26U U70G] ... 0.397
7. GUCCUCUAUCACGUGCGCGUGAAAGAGAGAAGUGAACCAGUGAAACACACGUUGUGGUAUAUUACCUGGUA [U8A A41U] ... 0.843
8. GUCCUCUUUCACGUGCGCGUGAAAGAGAGAAGUGAACCAAAGAAACAUACGUUGUGGUAUAUUACCUGGUA [G40A C48U] ... 0.136
9. GUCUUCUUUCACGUGCGCGUGAAAGAGAGAAGUGAACAAGAGAAACACACGUUGUGGUAUAUUACCUGGUA [C4U C38A] ... 0.13
10. GUCCUCUUUCACGUGCGCGUGAAAGAGAGAAGUGAACCAGAGAAACACACGUUGUGGUAGAUUACCUGGUA [U60G] ... 0.615
11. GUCCUCUUUCACGUGCGCGUGAAAGAGAAAAAUGAACCAGAGAAACACACGUUGUGGUAUAUUACCUGGUA [G29A G32A] ... 0.181
12. GUCCUCUUUCACGUGCGCGUGAAAGAGAGAAGUGAACCGGAGAAACACACGUUGUGGUAUAUUGCCUGGUA [A39G A64G] ... 0.275
